Measured values drawn from ChEMBL document CHEMBL2417501 for this set.

Answer each item with its documented EC50.
test system: Influenza B virus; experiment: Antiviral activity against influenza B virus infected in dog MDCK cells assessed as reduction of virus-induced cytopathogenicity by MTS assay; type: functional, organism-based

Request: Input `CCOC(=O)c1c(C)nc(OCCCNc2ccnc3cc(Cl)ccc23)nc1-c1ccccc1` , output reported EC50.
Result: > 4 µM

Request: Return reported EC50. Input molecule: `CCOC(=O)c1c(C)nc(NCCCCNc2ccnc3cc(Cl)ccc23)nc1-c1ccc(Cl)cc1`
Result: > 0.8 µM

Request: Identify EC50 associated with the molecule `NC(=O)c1ncn([C@@H]2O[C@H](CO)[C@@H](O)[C@H]2O)n1`
Result: 2.8 µM

Request: Look up EC50 of `NC12CC3CC(CC(C3)C1)C2` and report it.
Result: > 200 µM

Request: Give the reported EC50 for this molecule. `COC(=O)c1c(C)nc(NCCCNc2ccnc3cc(Cl)ccc23)nc1-c1ccccc1`
Result: > 0.16 µM

Request: Kindly indicate its recorded EC50. Item: `CCOC(=O)c1c(C)nc(NCCCCNc2ccnc3cc(Cl)ccc23)nc1-c1ccc(F)cc1`
Result: > 4 µM

Request: Dear colleague, please send me the reported EC50 for `CCOC(=O)c1cnc(NCCCCNc2ccnc3cc(Cl)ccc23)nc1C` when you can.
Result: > 4 µM
